Reference source for all entries: patent US12129237B2

List of IC50 values.
# TESTED_ON: JNK1 (Homo sapiens)
# Construct: purchased Carna Biosciences
# Sequence (P45983 whole entry): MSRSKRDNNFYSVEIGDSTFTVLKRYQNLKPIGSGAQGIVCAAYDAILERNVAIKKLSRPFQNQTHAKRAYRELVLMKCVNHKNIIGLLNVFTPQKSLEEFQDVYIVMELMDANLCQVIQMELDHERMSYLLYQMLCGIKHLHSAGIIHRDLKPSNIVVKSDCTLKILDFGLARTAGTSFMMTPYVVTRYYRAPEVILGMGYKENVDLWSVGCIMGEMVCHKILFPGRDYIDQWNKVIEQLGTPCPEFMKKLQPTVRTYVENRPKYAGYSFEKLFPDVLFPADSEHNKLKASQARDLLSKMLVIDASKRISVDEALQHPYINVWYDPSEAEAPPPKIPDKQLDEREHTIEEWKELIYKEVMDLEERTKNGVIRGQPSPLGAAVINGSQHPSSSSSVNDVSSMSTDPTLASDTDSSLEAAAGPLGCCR
# PROCEDURE_SUMMARY: JNK1 biochemical assays (one or more of: time resolved fluorescence, Z'-LYTE Cascade, radioactive)
# RUN_CONDITIONS: tested in one or more of the JNK1 biochemical assays; read-out: Act. Level (JNK1 biochemical assay IC50 activity level)

NC(=O)c1cnc(N[C@H]2CCCOC2)nc1N[C@@H]1CCC[C@H](O)C1
< 200 nM
C[C@]1(O)CCC[C@@H](Nc2nc(NC3CCOCC3)ncc2C(N)=O)C1
< 200 nM
C[C@@H]1CC[C@@H](Nc2nc(N[C@H]3CC[C@H](OC(F)F)CC3)ncc2C(N)=O)C[C@H]1O
< 200 nM
CCO[C@H]1CC[C@H](Nc2ncc(C(N)=O)c(NC3CCC[C@H](O)C3)n2)CC1 (stereo partly shown)
< 200 nM
CC(C)Nc1ncc(C(N)=O)c(N[C@H]2CC[C@@H](CO)CC2)n1
200 to 800 nM
COC[C@H]1CC[C@H](Nc2ncc(C(N)=O)c(N[C@H]3CCN(C(C)=O)C3)n2)CC1
200 to 800 nM
COC[C@H]1CC[C@@H](Nc2nc(N[C@@H]3CCN(C(C)=O)C3)ncc2C(N)=O)CC1
200 to 800 nM
CNC(=O)[C@H]1CC[C@H](Nc2ncc(C(N)=O)c(N[C@@H]3CCC[C@H](O)C3)n2)CC1
< 200 nM
CCO[C@H]1CC[C@H](Nc2ncc(C(N)=O)c(NC3CCC[C@H]3O)n2)CC1 (stereo partly shown)
< 200 nM
CCNC(=O)[C@H]1CC[C@@H](Nc2nc(NC3CC3)ncc2C(N)=O)CC1
1000 to 10000 nM

Consider the record given below.
# return recorded IC50 for input `CCO[C@H]1CC[C@H](Nc2ncc(C(N)=O)c(N[C@H]3CCC[C@@H]3OC)n2)CC1` < 200 nM
